B1: library; a variant is named by its letters at X, in order (parent)
chain: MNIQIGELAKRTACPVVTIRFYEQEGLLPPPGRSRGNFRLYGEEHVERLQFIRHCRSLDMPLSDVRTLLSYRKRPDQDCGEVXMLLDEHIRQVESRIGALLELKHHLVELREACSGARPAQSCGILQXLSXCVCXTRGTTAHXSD

Variants of: B1
procedure-details: sfGFP reporter fluorescence (15 h) (µM FITC); higher = stronger transcriptional activation
experimental-setup: library round: Round 2; ligand: 1 µM Pb
value-type: sfGFP reporter fluorescence
Answers are plain numbers.

Provide sfGFP reporter fluorescence values for the following items, in order.
1. NGLAP P61T
2. NMDDP I3M P61N K104V L107C
3. TGDDP D64T R111A
4. NTCDP M60L
5. NMDDA M60L
6. NICDP I125L
7. NGDAP S130A T136A
8. TGDDT R111V

1: 0.402; 2: 0.989; 3: 0.212; 4: 0.784; 5: 1.88; 6: 0.0446; 7: 0.0834; 8: 0.0656

Provide sfGFP reporter fluorescence values for the following items, in order.
1. TGDAL V108L
2. MGSDA
3. NADDP P61N D64K K104V
4. TIDSP L107C
5. NIDDP P61N C134E

1: 0.073; 2: 0.0841; 3: 1.61; 4: 1.42; 5: 0.544
